Origin of values: ChEMBL document CHEMBL4665812

- test.description: Apparent permeability across basolateral side to apical side in human Caco-2 cells at 5 uM after 2 hrs by transwell assay
- Assay type: ADME, cell-based
- settings: read-out: permeability
readout.kind: Papp B→A at 2 h, 5 µM (×10⁻⁶ cm/s)
Your answer is read as ×10⁻⁶ cm/s, so omit the unit and give the number.

Below, each entry is followed by its recorded Papp B→A at 2 h, 5 µM result.
C=CC(=O)Nc1cccc(-c2c[nH]c3ncnc(Nc4ccc(CN5C(=O)c6ccccc6C5=O)cc4)c23)c1
0.1
C=CC(=O)Nc1cc(-c2c[nH]c3ncnc(Nc4ccc5c(cnn5Cc5ccccc5)c4)c23)ccc1OCCO
5.2
C=CC(=O)Nc1cc(-c2c[nH]c3ncnc(Nc4ccc(OCc5ccccn5)c(Cl)c4)c23)ccc1OCCN(C)C
23.9

Then this compound:
Which Papp B→A at 2 h, 5 µM value is on record for `C=CC(=O)Nc1cccc(-c2c[nH]c3ncnc(Nc4ccc(OCc5ccccn5)c(Cl)c4)c23)c1` ?
0.6
